B1: glmS ribozyme (parent)
chain: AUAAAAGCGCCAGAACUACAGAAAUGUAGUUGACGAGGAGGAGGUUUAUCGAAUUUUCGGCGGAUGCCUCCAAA

Variants of: B1
Assay: self-cleavage kobs at 40 uM GlcN6P; higher = faster cleavage; RNA array
Details: with glucosamine-6-phosphate
This sample holds only a part of the variants without activity.
quantityName: self-cleavage kobs at 40 uM GlcN6P

G37A C61U : < 1e-05 s⁻¹
A14U U45A : 0.000446 s⁻¹
G9A A53C : < 1e-05 s⁻¹

The following variants each have a reported value; give each one's self-cleavage kobs at 40 uM GlcN6P.
1. G63C U65G
2. A14G U47G C58G C71U

["< 1e-05 s⁻¹", "4.07e-05 s⁻¹"]

The following variants each have a reported value; give each one's self-cleavage kobs at 40 uM GlcN6P.
1. G38C G43U
2. C10A C61U
3. U31G G38U C61U C71U
4. G32C G37C C58U

1: < 1e-05 s⁻¹; 2: < 1e-05 s⁻¹; 3: < 1e-05 s⁻¹; 4: < 1e-05 s⁻¹
